Taken from the supplement of paper PMC9112550.

system: Escherichia coli TOP10; assay: shrunken log2 fold change of peptide-encoding DNA abundance (4.5 h post-induction vs induction); higher = less antimicrobial activity (less host growth inhibition); conditions: time post-induction: 4.5 h; library: site-saturation at positions 5, 18, 19, 20;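 also: peptides expressed intracellularly from a pBAD plasmid library in pooled LB shake-flask culture, induced with 0.3% L-arabinose, DNA abundance read by NGS, three biological replicates, DESeq2 with apeglm shrinkage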
Listed below: shrunken log2 fold change values for each entry.
Keep it simple and answer with nothing but the number.

Past entries and their recorded results:
RRIRHRPPRLPRPRPRPTMCPRP : -0.00396
RRIRTRPPRLPRPRPRPVGYPRP : 0.35
RRIRQRPPRLPRPRPRPDCDPRP : -0.0763
RRIRPRPPRLPRPRPRPYRPPRP : -0.257
RRIRLRPPRLPRPRPRPHTHPRP : -0.441

For "RRIRERPPRLPRPRPRPAIMPRP" , what is its reported shrunken log2 fold change?
-0.299

For "RRIRCRPPRLPRPRPRPELAPRP" , what is its reported shrunken log2 fold change?
0.403

For "RRIRERPPRLPRPRPRPYPTPRP" , what is its reported shrunken log2 fold change?
-0.397
